B1: glmS ribozyme (parent)
chain: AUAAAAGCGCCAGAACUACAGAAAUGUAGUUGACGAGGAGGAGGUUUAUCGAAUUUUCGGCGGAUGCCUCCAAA

- Variants of: B1
- Protocol Notes: self-cleavage kobs at 160 uM GlcN6P; higher = faster cleavage; RNA array
- Measurement Setup: with glucosamine-6-phosphate
This sample holds only a part of the variants without activity.
Property: self-cleavage kobs at 160 uM GlcN6P

Give self-cleavage kobs at 160 uM GlcN6P for each of the items listed below.
1. AUAAAAGCGCCAGAACUACAGAAAUGUAGUUGACGAGGAGGAGGUUUAUUGAAUUUCCGGCGGAUGCCUCCAAA
2. AUAAAAGCGCAAGAACUACAGAAAUGUAGUUGACGAGGAGGAGGUUUAUCGAAUUUUCGGCGGAUGGCUCCAAA
3. AUAAAAGCGCCAGAACUACAGAAAUGUAGUUGACGAGGAGGAGGUUUAUCGGAUUUUCGGCGGAUGCCUCCAAA
4. AUAAAUGCGCCAGCACUACAGAAAUGUAGUUGACGAGGAGGAGGUUUAUCAAAUUUUCGGCGGAUGCCUCCAAA

Reply text:
1: < 1e-05 s⁻¹; 2: 3.16e-05 s⁻¹; 3: 0.000104 s⁻¹; 4: < 1e-05 s⁻¹

Give self-cleavage kobs at 160 uM GlcN6P for each of the items listed below.
1. AUAAAAGCGCCAGAACUACAGAAAUGUAGUUGACGAGAAUGAGGUUUAUCGAAUUUUCGGCGGAUGCCUCCAAA
2. AUAAAAGCGCCAGAAAUACAGAAAUGUAGUUGACGAGGAGGAGGUUUACCGAAUUUUCGGCGGAUGCCUCCAAA
3. AUAAAAGCGCCGGAACUACAGAAAUGUAGUUGACGAGGAGGAGGUUUAUCGAAUUUUCGGCGGAUACCUCCAAA
4. AUAAAAGCGCCAGAACUACAGAAAUGUACUUGACGAGGAGCAGGUUUAUCGAAUUUUCGACGGAUGCCUCCAAA
5. AUAAAAGCGCCAGAACUACAGAAAUGUAGUUGACGAGGAGGAGGUUAAUCGAAUGUUCGGCGGAUGCCUCCAAA
6. AUAAAAGCGCCAGUACUACAGAAAUGUAGUUGACGAGGAGGAGGUUUAUCGAAUUUUCGGCGGAUGCCUCUAAA

Reply text:
1. < 1e-05 s⁻¹
2. < 1e-05 s⁻¹
3. 2.09e-05 s⁻¹
4. < 1e-05 s⁻¹
5. 0.000805 s⁻¹
6. 0.000492 s⁻¹

Give self-cleavage kobs at 160 uM GlcN6P for each of the items listed below.
1. AUAAAACCGCCAGAACUACAGAAAUGUAGUUGACGAGGAGGAGGUUUAUUUAAUUUUCGGCGGAUGCCUACAAA
2. AUAAAAGCGCCAGAACUACAGAAAUGUAGUUGACGAGUAGGAGGUUUAUCGAAUUUUUGGCGGAUGCCGCCAAA
3. AUAAAAGCGCCAGAACUACAGAAAUGUAGUUGACGAGGAGUAGGUUUAUAGAAUUUUCGGCGGAUGCCUCCAAA
4. AUAAAAGCGCCAGAACUACAGAAAUGUAGUUGACGAGGAGGAGGUUUAUCGAAAUUUCGGCGGAGGCCUCCAAA
5. AUAAAAGCGCAAGAACUACAGAAAUGUAGUUGACGAGCAGGAGGUUUAUCGAAUUUUCGGCGGAUGCCUCCAAA

Reply text:
1. < 1e-05 s⁻¹
2. 0.000207 s⁻¹
3. < 1e-05 s⁻¹
4. 0.000211 s⁻¹
5. < 1e-05 s⁻¹

Give self-cleavage kobs at 160 uM GlcN6P for each of the items listed below.
1. AUAAAAGCGCCAGAACUACAGAAAUGUAGUGGACGAGGAGUAGGUUUAUCGAAUUUUCGGCGGAUGCCUCCAAA
2. AUAAAAGCGCCAGAACUACAGAAAUGUAGUUGACGAGGAGGGGGUUUAUCGAAUUGUCGGCGGAUGCCUCCAAA
3. AUAAAAGUGCCAGAACUACAGAAAUGUAGUUGACGAGGAGAAGGUUUAUCGAAUUUUCGGCGGAUGCCUCCAAA
4. AUAAAAGCGCCAGAACUACAGAAAUGUAGUUGUCCAGGAGGAGGUUUAUCGAAUUUCCGGCGGACGCCUCCAAA
5. AUAAAAGCGCCUGAACUACAGAAAUGUAGUGGACGAGGAGGAGGUUUAUCGAAUUUUCGGCGGAUGCCCCCAAA
6. AUAAAAGCGCCCGAACUACAGAAAUGUAGUUGACGAGGAGGCGGUUUAUCGCAUUUUCGGUGGAUGCCACCAAA

Reply text:
6.71e-05 s⁻¹
0.00171 s⁻¹
< 1e-05 s⁻¹
< 1e-05 s⁻¹
0.000336 s⁻¹
< 1e-05 s⁻¹
